Listing of IC50 toward 3',5'-cyclic-AMP phosphodiesterase 4B (Homo sapiens, UniProt Q07343), each taken from a published source.
Write the answer as a number in nM, unit excluded.

Sample answers from the record:
Print 3',5'-cyclic-AMP phosphodiesterase 4B (Homo sapiens, UniProt Q07343) IC50 for COc1cc2c(cc1OC1CCCC1)CN(S(=O)(=O)c1ccc(Cl)cc1)CC2 .
11000

Write down the reported IC50 (system: 3',5'-cyclic-AMP phosphodiesterase 4B (Homo sapiens, UniProt Q07343)) of CC1(C)Cc2c(c(N3CCOCC3)nc3sc4c(N(CCO)CCN5CCOCC5)ncnc4c23)CO1
Sequence (Q07343 whole entry): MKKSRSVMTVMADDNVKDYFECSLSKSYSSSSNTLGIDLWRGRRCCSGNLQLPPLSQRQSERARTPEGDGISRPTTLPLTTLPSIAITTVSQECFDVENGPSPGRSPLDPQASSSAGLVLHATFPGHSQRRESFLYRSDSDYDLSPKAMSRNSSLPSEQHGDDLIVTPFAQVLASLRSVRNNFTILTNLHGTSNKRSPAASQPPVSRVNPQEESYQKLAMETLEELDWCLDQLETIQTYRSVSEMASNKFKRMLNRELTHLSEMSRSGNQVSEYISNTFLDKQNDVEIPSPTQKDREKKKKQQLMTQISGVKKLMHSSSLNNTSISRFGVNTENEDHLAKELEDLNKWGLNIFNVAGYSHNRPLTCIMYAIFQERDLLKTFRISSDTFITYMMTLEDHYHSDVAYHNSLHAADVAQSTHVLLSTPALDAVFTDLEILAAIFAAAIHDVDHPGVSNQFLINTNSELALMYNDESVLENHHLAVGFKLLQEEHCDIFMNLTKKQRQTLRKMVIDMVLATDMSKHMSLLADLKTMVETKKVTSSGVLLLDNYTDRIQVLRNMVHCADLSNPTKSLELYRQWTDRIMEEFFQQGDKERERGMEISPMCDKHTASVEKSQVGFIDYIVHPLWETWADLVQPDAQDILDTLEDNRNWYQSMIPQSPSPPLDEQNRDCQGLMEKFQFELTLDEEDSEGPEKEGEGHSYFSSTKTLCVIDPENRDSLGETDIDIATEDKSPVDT
13

Quote 3',5'-cyclic-AMP phosphodiesterase 4B (Homo sapiens, UniProt Q07343) IC50 for entry Cc1noc(/C(=C/c2cccc(-c3cc(C(C)C)cc4cccnc34)c2)c2ccccn2)n1 .
0.3

Name the recorded IC50 of CCOc1nc2c(c(=O)n(C)c(=O)n2C)n1CCCC(=O)N/N=C/c1ccccc1 , assay system 3',5'-cyclic-AMP phosphodiesterase 4B (Homo sapiens, UniProt Q07343).
37000

Now examine the next entry.
Consider the molecule CC(C)(C)C1CCc2c(sc(NC(=O)c3ccccc3[N+](=O)[O-])c2C(N)=O)C1 (stereo not given) tested on 3',5'-cyclic-AMP phosphodiesterase 4B (Homo sapiens, UniProt Q07343); state its IC50.
25.1
